target: MAO-A (Homo sapiens, UniProt P21397); assay: Inhibition of recombinant human MAOA expressed in baculovirus infected BTI insect cells at 100 uM using p-tyramine as substrate measured after 15 mins by Amplex red reagent based fluorescence assay relative to control; settings: probe p-tyramine
Sequence (P21397 whole entry): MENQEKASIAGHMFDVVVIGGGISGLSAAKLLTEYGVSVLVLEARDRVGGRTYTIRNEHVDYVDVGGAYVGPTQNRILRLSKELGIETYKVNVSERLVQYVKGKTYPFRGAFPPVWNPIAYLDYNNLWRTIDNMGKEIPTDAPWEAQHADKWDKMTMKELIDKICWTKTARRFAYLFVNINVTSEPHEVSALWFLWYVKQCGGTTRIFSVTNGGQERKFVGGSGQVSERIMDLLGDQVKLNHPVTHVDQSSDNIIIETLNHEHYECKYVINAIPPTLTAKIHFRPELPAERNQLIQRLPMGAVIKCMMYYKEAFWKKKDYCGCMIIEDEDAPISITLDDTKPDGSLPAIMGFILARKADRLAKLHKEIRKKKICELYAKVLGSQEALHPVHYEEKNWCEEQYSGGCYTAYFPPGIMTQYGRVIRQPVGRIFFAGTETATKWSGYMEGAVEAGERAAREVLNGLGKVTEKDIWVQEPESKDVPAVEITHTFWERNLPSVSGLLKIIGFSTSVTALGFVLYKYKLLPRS

{"columns": ["COMPOUND", "UNITS_SYMBOL", "inhibition at 0.25 h, 100 µM"],
 "data": [
  ["C#CCN(C)CCCCOc1ccc(C(C)=O)cc1", "%", 28.6],
  ["C#CCN(C)CCCCCCOc1ccc2c(c1)OCCC2=O", "%", 34.1],
  ["C#CCN(C)CCCCCOc1ccc2c(c1)OCCC2=O", "%", 6.04],
  ["C#CCN(C)CCCCOc1ccc(C=O)c(OC)c1", "%", 29.4],
  ["C#CCN(C)CCCCCOc1cccc(OC)c1", "%", 32.3],
  ["C#CCN(C)CCCCCOc1ccc(C=O)c(OC)c1", "%", 27.1],
  ["C#CCN(C)CCCCOc1ccc(C(C)=O)cc1OC", "%", 21.1]
]}
